test: inhibition of 3D7 malaria parasite growth – strain 3D7 (AID 2306);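 also: 0% = DMSO wells and 100% = chloroquine plus artemisinin control wells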; details: P. falciparum 3D7 erythrocytic growth, LDH absorbance, 72 h; at 2 µM; stronger effect = higher value
Observation Type: growth inhibition (%)
Your answer should be a plain number; it is taken to be in %.

May I ask what growth inhibition has been recorded for `C/C=C1\CN2CC[C@H]1C[C@H]2[C@H](O)c1ccnc2ccc(O)cc12` ?
98

May I ask what growth inhibition has been recorded for `CC[C@H]1CN2CC[C@@H]1C[C@@H]2[C@@H](O)c1cc(-c2ccc(F)cc2)nc2ccc(OC)cc12` ?
98

---

assay: survival rescue of mitochondrial mutant cells in low glucose, primary screen, MELAS cybrids, Rieske KO mouse fibroblasts, CellTiter-Glo (AID 1508586); settings: MELAS cybrid survival, CellTiter-Glo 48 h;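 also: z relative to plate mean and SD of compound and empty wells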
The source made the active and inactive calls.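 How the source made its calls: active means mean z-score across replicates of 1.96 or higher in either the MELAS or the Rieske mutant cell line; inactive means the rest.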
Parameter call: string, one of 1 for active, 0 for inactive

Fc1cc(F)c2c(c1)[C@H]1C=CC[C@@H]1C(c1cccnc1)N2 (stereo not given in full) = 0
CN(C)C1C(=O)C(C(N)=O)=C(O)[C@@]2(O)C(=O)C3=C(O)c4c(O)cccc4[C@@](C)(O)[C@H]3C(O)[C@@H]12 (stereo not given in full) = 0
CC(=O)OCC1=C(C(=O)O)N2C(=O)[C@@H](N)[C@H]2SC1 = 0
CC[C@@H](CO)NC(=O)[C@@H]1C=C2c3cccc4c3c(cn4C)C[C@H]2N(C)C1 = 0
COc1ccc(C(=O)c2c(C)n(CCN3CCOCC3)c3ccccc23)cc1 = 0
CC1CCCC=C[C@@H]2CC(O)C[C@H]2C(O)C=CC(=O)O1 (stereo not given in full) = 1
CCCC(=O)OCC[N+](C)(C)C = 0
C[C@H]1CN(C2CCC(C#N)(c3ccc(F)cc3)CC2)CC[C@@]1(C(=O)O)c1ccccc1 (stereo not given in full) = 0
CC[C@H](C)[C@H]1O[C@]2(C=C[C@@H]1C)C[C@@H]1C[C@@H](C/C=C(\C)C(O[C@H]3C[C@H](OC)C(O[C@H]4C[C@H](OC)[C@@H](O)[C@H](C)O4)[C@H](C)O3)[C@@H](C)/C=C/C=C3\CO[C@@H]4[C@H](O)C(C)=C[C@@H](C(=O)O1)[C@]34O)O2 (stereo not given in full) = 0
CCC1(CC)C(=O)C=CNC1=O = 0

Hi, sorry to bother you, what did the test record for CC(C)NCC(O)c1ccccc1Cl (stereo not given) ?
0

Hi, sorry to bother you, what did the test record for `O=C(CCCN1CCC(n2c(=O)[nH]c3ccccc32)CC1)c1ccc(F)cc1` ?
0

Hi, sorry to bother you, what did the test record for CCCCCC[C@H]1C(=O)O[C@H](C)C(NC(=O)c2cccc(NC=O)c2O)C(=O)O[C@@H](C)[C@@H]1OC(=O)CC(C)C (stereo not given in full) ?
0

Hi, sorry to bother you, what did the test record for `CC(C)[N+](C)(CCC(C(N)=O)(c1ccccc1)c1ccccc1)C(C)C` ?
0

Hi, sorry to bother you, what did the test record for `C=C1CC[C@@]2(O)[C@H]3Cc4ccc(O)c5c4[C@@]2(CCN3CC2CC2)[C@H]1O5` ?
0

Hi, sorry to bother you, what did the test record for `C[C@@H](N)[C@@H](O)c1ccccc1` ?
0

Hi, sorry to bother you, what did the test record for `COc1cccc2ncn(Cc3cn4ccccc4n3)c(=O)c12` ?
0

Hi, sorry to bother you, what did the test record for NC(CC(=O)N1CCn2c(nnc2C(F)(F)F)C1)Cc1cc(F)c(F)cc1F (stereo not given) ?
0

Hi, sorry to bother you, what did the test record for CC1CC[C@H]2C(C)C(=O)O[C@@H]3O[C@@]4(C)CC[C@@H]1[C@]32OO4 (stereo not given in full) ?
0

Hi, sorry to bother you, what did the test record for C[N+]1(C)C2CC[C@H]1CC(OC(=O)C(CO)c1ccccc1)C2 (stereo not given in full) ?
0
